assay: Cell viability (Presto Blue), A875 NT; assay type: cell-based, human; conditions: human, A875 NT cells, Div17E5 1 uM; 2 days; N=3; read-out: Cell Viability, Mean
parameter.measured: viability at 2 days, 1 uM (%)

1) Oc1ccc(-c2cncc(Nc3ccc(Br)c(Cl)c3)n2)cc1 = 75

* * *

test: Plasma pharmacokinetics in mice; format: in vivo, C57BL/6 mice; details: C57BL/6, mouse; IV 3 mg/kg; male; plasma; back extrapolated; read-out: C0/Cmax
parameter.measured: Cmax (ng/mL)

1) Cc1cccc(-c2cncc(Nc3ccc(Br)c(Cl)c3Cl)n2)c1C = 4710
